targetOrTestSystem: T1, recombinant human DLL4 (human, UniProt Q9NR61 25-522)
T1 construct: R&D Systems C-terminally His-tagged extracellular domain; also called rhDLL4; hDLL4; not shown: C-terminal His tag
T1 sequence (Q9NR61 25-522): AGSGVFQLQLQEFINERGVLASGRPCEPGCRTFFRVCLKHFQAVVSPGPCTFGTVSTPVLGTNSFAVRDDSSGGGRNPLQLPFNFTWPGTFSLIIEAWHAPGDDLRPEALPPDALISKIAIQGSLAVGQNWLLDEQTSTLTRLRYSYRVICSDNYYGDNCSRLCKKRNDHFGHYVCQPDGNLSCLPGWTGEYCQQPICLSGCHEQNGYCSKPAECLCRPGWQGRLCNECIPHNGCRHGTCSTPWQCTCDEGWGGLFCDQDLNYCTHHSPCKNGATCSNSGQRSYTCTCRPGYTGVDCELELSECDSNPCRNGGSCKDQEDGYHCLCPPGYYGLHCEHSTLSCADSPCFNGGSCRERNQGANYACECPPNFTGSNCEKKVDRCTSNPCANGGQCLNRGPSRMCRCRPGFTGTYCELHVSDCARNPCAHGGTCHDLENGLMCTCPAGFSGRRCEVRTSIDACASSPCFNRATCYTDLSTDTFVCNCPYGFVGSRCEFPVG
test: ProteOn off-rate screen, periplasmic extract, hDLL4 on chip
measuredParameter: fold (off-rate improvement over DLLBII101G08) (fold)

Guide cases for fold (off-rate improvement over DLLBII101G08), answers given:
1) DLLBII130E03 (VHH) VHH: EVQLVESGGGLVQAGGSLRLSCAASGRTFSSYAMAWYRQAPGKEREYVAAIRWSGGTAYYADSVQGRFTISRDNAKNTVYLQMNSLKPEDTAVYYCANRAPDTRLEPYEYDHWGQGTQVTVSS: 24
2) DLLBII129D01 (VHH) VHH: EVQLVESGGGLVQAGGSLRLSCAASGRTFSSYAMAWFRQAPGKEREYVAAIRWSGGTAYYADSVQSRFTITRDNAKNTVYLQMNSLKPEDTAVYYCANRAPDTRLEPYLYDHWGQGTQVTVSS: 26
3) DLLBII129E07 (VHH) VHH: EVQLVESGGGLVQAGGSLRLSCSASGRTFSSYAMAWYRQAPGKEREYVAAIRWSGGTAYYPDSVQGRFTISRDNAKNTVYLQMNSLKPEDTAVYYCANRAPDTRLAPYEYDHWGQGTQVTVSS: 21
4) DLLBII129G10 (VHH) VHH: EVQLVESGGGLVQAGGSLRLSCAASGRTFSSYAMAWYRQAPGKEREYVAAIRWSGGTAYYADSVQSRFTISRDNAKNTVYLQMNSLKPEDTAVYYCANRAPDTRLEPYEYDHWGQGTQVTVSS: 31
5) DLLBII130A05 (VHH) VHH: EVQLVESGGGLVQAGGSLRLSCAASGRTFSSYAMAWYRQAPGKEREYVAAIRWSGGTAYYADSVQGRFTISRDNAKNTVYLQMNSLKPEDTAVYYCANRAPDTRLGPYLYDHWGQGTQVTVSS: 24
6) DLLBII129B02 (VHH) VHH: EVQLVESGGGLVQAGGSLSLSCAASGRTFSSYAMAWYRQAPGKEREYVAAIRWSGGTAYYADSVQGRFTISRDNAKNTVYLQMNSLKPEDTAVYYCANRAPDTRLEPYEYDHWGQGTQVTVSS: 30
7) DLLBII129A03 (VHH, not shown: C-terminal c-myc tag and (His)6 tag) VHH: EVQLVESGGGLVQAGGSLRLSCAASGRTFSSYAMAWFRQAPGKEREYVAAIRWSGGTAYYADSVQGRFTISRDNAKNTVYLQMNSLRPEDTAVYYCANRAPDTRLRPYLYDYWGQGTQVTVSS: 19
8) DLLBII130D06 (VHH) VHH: EVQLVESGGGLVQAGGSLRLSCSASGRTFSSYAMAWYRQAPGKEREYVAAIRWSGETAYYADSVQGRFTISRDNAKNTVYLQMNSLKPEDTAVYYCANRAPDTRLEPYLYDHWGQGTQVTVSS: 26

I = DLLBII129H05 (VHH) VHH: EVQLVESGGGLVQAGGSLRLSCAASGRTFSSYAMAWYRLAPGKEREYVAAIRWSGGTAYYADSVQGRFTISRDNAKNTVYLQMNSLKPEDTAVYYCANRAPDTRLGPYLYDYWGQGTQVTVSS
II = DLLBII129D08 (VHH, not shown: C-terminal c-myc tag and (His)6 tag) VHH: EVQLVESGGGLVQAGGSLRLSCAASGRTFSSYAMAWYRQAPGKEREYVAAIRWSGGTAYYADSVQGRFTISRDNAKNTVYLQMNSLKPEDTAVYYCANRAPDTRLEPYLYDYWGQGTQVTVSS
Identify the entry with the larger fold (off-rate improvement over DLLBII101G08). Options: I and II Could you answer with the label of the item you picked?
II

Source listed as patent US20130078247A1.
